Data origin: patent US8871753B2

Molecular target: human JAK2 (a.a. 828-1132) (Homo sapiens)
Construct: JAK2 (a.a. 828-1132); His tag (N); made in house; host or cells: insect cells (baculovirus)
Sequence (O60674 828-1132): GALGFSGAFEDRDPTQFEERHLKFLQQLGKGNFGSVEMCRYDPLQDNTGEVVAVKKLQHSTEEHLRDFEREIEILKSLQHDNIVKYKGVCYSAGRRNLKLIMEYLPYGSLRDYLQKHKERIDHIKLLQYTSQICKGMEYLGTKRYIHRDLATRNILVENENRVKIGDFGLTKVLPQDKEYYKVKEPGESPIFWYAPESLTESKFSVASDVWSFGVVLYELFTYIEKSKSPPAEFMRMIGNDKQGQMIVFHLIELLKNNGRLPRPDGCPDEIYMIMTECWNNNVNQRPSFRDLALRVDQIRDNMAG
Test: In vitro JAK kinase assay (HTRF, phosphorylation of a biotinylated peptide), JAK2
Format: biochemical
Details: Table D1
Where a name gives a salt, the structure may show the parent alone.
Quick list: IC50 per entry.
Note: unit µM is implicit; provide only the numeric part.

Answered examples (8):
| compound | test.system | IC50, µM |
| --- | --- | --- |
| O=C1c2ccccc2C(=O)N1CCS(=O)(=O)Nc1ccc2cc1CCc1cncc(c1)Nc1ncc(Cl)c(n1)N2 [Example D210, bis(trifluoroacetate)] | human JAK2 (a.a. 828-1132) (Homo sapiens) | 0.014 |
| Cc1nc(S(=O)(=O)Nc2cc3cc(c2)OCCSc2cccc(c2)Nc2nc(ncc2Cl)N3)cn1C [Example D69, bis(trifluoroacetate)] | human JAK2 (a.a. 828-1132) (Homo sapiens) | 0.0014 |
| N#Cc1ccccc1NC(=O)N1CC[C@H](CC(=O)Nc2ccc3cc2CCc2cncc(c2)Nc2ncc(Cl)c(n2)N3)C1 [Example D100, bis(trifluoroacetate)] | human JAK2 (a.a. 828-1132) (Homo sapiens) | 0.191 |
| O=C(C[C@@H]1CCCN(C(=O)Nc2ccccc2)C1)Nc1ccc2cc1CCc1cncc(c1)Nc1ncc(Cl)c(n1)N2 [Example D198, bis(trifluoroacetate)] | human JAK2 (a.a. 828-1132) (Homo sapiens) | 0.01 |
| N#Cc1ccc(N2CCN(C(=O)COc3ccc4cc3CCc3cncc(c3)Nc3ncc(Cl)c(n3)N4)CC2)cc1 [Example D236, tris(trifluoroacetate)] | human JAK2 (a.a. 828-1132) (Homo sapiens) | 0.288 |
| O=C(Nc1cccc(N2CCOCC2)n1)N1CCC(CCOc2ccc3cc2CCc2cncc(c2)Nc2ncc(Cl)c(n2)N3)CC1 [Example D176, tris(trifluoroacetate)] | human JAK2 (a.a. 828-1132) (Homo sapiens) | 0.208 |
| Cc1ccc(N2CCN(C(=O)COc3ccc4cc3CCc3cncc(c3)Nc3ncc(Cl)c(n3)N4)CC2)nc1 [Example D246, tris(trifluoroacetate)] | human JAK2 (a.a. 828-1132) (Homo sapiens) | 0.226 |
| Clc1cnc2nc1Nc1cccc(c1)CCSc1cccc(c1)N2 [Example D19, hydrochloride] | human JAK2 (a.a. 828-1132) (Homo sapiens) | 0.016 |

Form field IC50, entry O=C(Nc1cccs1)N1CCC(CCOc2ccc3cc2CCc2cncc(c2)Nc2ncc(Cl)c(n2)N3)CC1 [Example D167, bis(trifluoroacetate)] : 0.244

Form: compound = O=C(NCc1ccccc1)N1CCN(c2ccc(-c3cc4cc(c3)Nc3ncc(Cl)c(n3)Nc3cccc(c3)OCC4)cn2)CC1 [Example D48, bis(trifluoroacetate)] ; IC50 = 0.0021

// IC50 value for O=C(C[C@@H]1CCCN(c2nc3ccccc3s2)C1)Nc1ccc2cc1CCc1cncc(c1)Nc1ncc(Cl)c(n1)N2 [Example D211, tris(trifluoroacetate)] : 0.16

According to the records, this compound O=C(Nc1nccs1)c1cc2cc(c1)OCCSc1cccc(c1)Nc1nc(ncc1Cl)N2 [Example D54, trifluoroacetate] displays IC50 of 0.015

The recorded IC50 for O=C(CC1CN(c2ccccn2)C1)Nc1ccc2cc1CCc1cncc(c1)Nc1ncc(Cl)c(n1)N2 [Example D153, tris(trifluoroacetate)] is 0.15

Value of measured IC50 for the entry CC(=O)N1CCC(CCOc2ccc3cc2CCc2cncc(c2)Nc2ncc(Cl)c(n2)N3)CC1 [Example D161, bis(trifluoroacetate)] : 0.276
